Tested on: HCC461 cells
Assay: Cell viability assay in HCC461 cells (WST-1)
Type: cell-based
Details: HCC461; 48 hrs incubation, WST-1 viability; read-out: HCC461 cell
Provide the recorded pIC50 for the entries that follow.
Give bare numbers, as −log10 of the molar value.

COMPOUND	pIC50
CC[C@H](NC)C(=O)N[C@H](C(=O)N1CCCC1)c1ccc(C#CCO[C@H](C)[C@H](NC(=O)[C@H](C)NC)C(=O)N2CCC[C@H]2C(=O)N[C@@H]2CCCc3ccccc32)cc1.Cl.Cl [Compound 37]	6.70

Let us examine a further case.
Measured pIC50, CN[C@@H](C)C(=O)N[C@@H](CCCCNC(=O)CC(=O)NCCCC[C@H](NC(=O)[C@H](C)NC)C(=O)N1CCC[C@H]1C(=O)N[C@@H]1CCCc2ccccc21)C(=O)N1CCC[C@H]1C(=O)N[C@@H]1CCCc2ccccc21.Cl.Cl [Compound 50] : 7.70

---

Provide the recorded Bir binding for the entries that follow.
Molecular target: truncated XIAP containing only BIR1, BIR2, and BIR3 domains (Homo sapiens)
Construct: truncated XIAP containing only BIR1, BIR2, and BIR3 domains
Sequence (P98170 1-356 limits assumed): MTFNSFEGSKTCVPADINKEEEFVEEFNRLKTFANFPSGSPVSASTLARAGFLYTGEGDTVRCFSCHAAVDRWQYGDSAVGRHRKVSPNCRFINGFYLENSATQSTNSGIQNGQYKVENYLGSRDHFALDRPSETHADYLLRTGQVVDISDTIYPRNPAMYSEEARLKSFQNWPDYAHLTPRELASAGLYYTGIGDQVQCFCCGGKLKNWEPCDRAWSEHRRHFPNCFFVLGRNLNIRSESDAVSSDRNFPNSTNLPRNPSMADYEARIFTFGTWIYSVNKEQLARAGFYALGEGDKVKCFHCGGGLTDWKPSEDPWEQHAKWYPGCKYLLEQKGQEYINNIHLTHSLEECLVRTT
Test: Fluorescent polarization assay (Bir binding)
Conditions: competition with 2 nM fluorescein labeled AVPI peptide, room temperature, 1 hour
One number for each entry, in µM.

MOLECULE	VALUE UNITS	Bir binding
CCC[C@H](NC)C(=O)N[C@@H](CC#CC#CC[C@H](NC(=O)[C@H](C)NC)C(=O)N1CCC[C@H]1C(=O)N[C@@H]1CCCc2ccccc21)C(=O)N1CCC[C@H]1C(=O)N[C@@H]1CCCc2ccccc21.Cl.Cl [Compound 15]	µM	0.638

Let us examine a further case.
// returns Bir binding for CN[C@@H](C)C(=O)N[C@@H](CCCCNC(=O)c1cccc(C(=O)NCCCC[C@H](NC(=O)[C@H](C)NC)C(=O)N2CCC[C@H]2C(=O)N[C@@H]2CCCc3ccccc32)c1)C(=O)N1CCC[C@H]1C(=O)N[C@@H]1CCCc2ccccc21.Cl.Cl [Compound 47] with truncated XIAP containing only BIR1, BIR2, and BIR3 domains (Homo sapiens); value = 0.19

---

Tested on: Caspase3 in Hela S100
Experiment: In-vitro caspase-3 activation assay in Hela S100 extract
Assay type: biochemical
Conditions: 100 nM compound, Hela S100, 1 mM dATP; slope versus control (compound 1 = Caspase std.)
Provide the recorded Caspase % for the entries that follow.
Phrase the answer as number then unit, nothing more needed.

Hey, can you go through the list below and give me Caspase % for every item?
1. CN[C@@H](C)C(=O)N[C@@H](CCCCCC[C@H](NC(=O)[C@H](C)NC)C(=O)N1CCC[C@H]1C(=O)N[C@@H]1CCCc2ccccc21)C(=O)N1CCC[C@H]1C(=O)N[C@@H]1CCCc2ccccc21
2. CN[C@@H](C)C(=O)N[C@H](C(=O)N1CCCC1C(=O)N[C@@H]1CCCc2ccccc21)[C@@H](C)OCCCCCCO[C@H](C)[C@H](NC(=O)[C@H](C)NC)C(=O)N1CCC[C@H]1C(=O)N[C@@H]1CCCc2ccccc21.Cl.Cl (some centres unmarked)
3. CC[C@H](NC)C(=O)N[C@@H](CCCCCC[C@H](NC(=O)[C@H](CC)NC)C(=O)N1CCC[C@H]1C(=O)N[C@@H]1CCCc2ccccc21)C(=O)N1CCC[C@H]1C(=O)N[C@@H]1CCCc2ccccc21
4. CN[C@@H](C)C(=O)N[C@@H](Cc1cn(CCCn2cc(C[C@H](NC(=O)[C@H](C)NC)C(=O)N3CCC[C@H]3C(=O)N[C@@H]3CCCc4ccccc43)nn2)nn1)C(=O)N1CCC[C@H]1C(=O)N[C@@H]1CCCc2ccccc21.Cl.Cl

OUTPUT:
105%
104%
105%
98%

Hey, can you go through the list below and give me Caspase % for every item?
1. CN[C@@H](C)C(=O)N[C@H](C(=O)N1CCC[C@H]1C(=O)N[C@@H]1CCCc2ccccc21)[C@@H](C)OCC#CC=CCO[C@H](C)[C@H](NC(=O)[C@H](C)NC)C(=O)N1CCC[C@H]1C(=O)N[C@@H]1CCCc2ccccc21.Cl.Cl
2. CN[C@@H](C)C(=O)N[C@H](C(=O)N1CCC[C@H]1C(=O)N[C@@H]1CCCc2ccccc21)[C@@H](C)OCc1cn(CCn2cc(CO[C@H](C)[C@H](NC(=O)[C@H](C)NC)C(=O)N3CCC[C@H]3C(=O)N[C@@H]3CCCc4ccccc43)nn2)nn1.Cl.Cl
3. CN[C@@H](C)C(=O)N[C@@H](Cc1nnn2c1-c1c(C[C@H](NC(=O)[C@H](C)NC)C(=O)N3CCC[C@H]3C(=O)N[C@@H]3CCCc4ccccc43)nnn1CC2)C(=O)N1CCCC1C(=O)N[C@@H]1CCCc2ccccc21.Cl.Cl (some centres unmarked)
4. CN[C@@H](C)C(=O)N[C@@H](Cc1ccc(OC/C=C\COc2ccc(C[C@H](NC(=O)[C@H](C)NC)C(=O)N3CCCC3C(=O)N[C@@H]3CCCc4ccccc43)cc2)cc1)C(=O)N1CCCC1C(=O)N[C@@H]1CCCc2ccccc21.Cl.Cl (some centres unmarked)

OUTPUT:
1. 94%
2. 106%
3. 70%
4. 104%

---

System: HCC461 cells
Assay: Cell viability assay in HCC461 cells (WST-1)
Assay type: cell-based
Details: HCC461; 48 hrs incubation, WST-1 viability; read-out: HCC461 cell
Provide the recorded IC50 for the entries that follow.
Answers are plain numbers, in nM.

Reference set (5 entries):
MOLECULE	VALUE UNITS	IC50
C=C(C#CCO[C@H](C)[C@H](NC(=O)[C@H](C)NC)C(=O)N1CCC[C@H]1C(=O)N[C@@H]1CCCc2ccccc21)CO[C@H](C)[C@H](NC(=O)[C@H](C)NC)C(=O)N1CCC[C@H]1C(=O)N[C@@H]1CCCc2ccccc21.Cl.Cl	nM	240
CN[C@@H](C)C(=O)N[C@@H](CC#Cc1ccc([C@H](NC(=O)[C@H](C)NC)C(=O)N2CCC[C@H]2C(=O)N[C@@H]2CCCc3ccccc32)cc1)C(=O)N1CCC[C@H]1C(=O)N[C@@H]1CCCc2ccccc21.Cl.Cl	nM	100
CN[C@@H](C)C(=O)N[C@@H](CCCCNC(=O)NCCCC[C@H](NC(=O)[C@H](C)NC)C(=O)N1CCC[C@H]1C(=O)N[C@@H]1CCCc2ccccc21)C(=O)N1CCC[C@H]1C(=O)N[C@@H]1CCCc2ccccc21.Cl.Cl	nM	56
CC[C@H](NC)C(=O)N[C@@H](CC#CC#CC[C@H](NC(=O)[C@H](C)NC)C(=O)N1CCC[C@H]1C(=O)N[C@@H]1CCCc2ccccc21)C(=O)N1CCC[C@H]1C(=O)N[C@@H]1CCCc2ccccc21.Cl.Cl	nM	25
CNC(C)C(=O)N[C@@H](CCCCCC[C@H](NC(=O)[C@H](C)NC)C(=O)N1CCC[C@H]1C(=O)NCc1ccccc1)C(=O)N1CCC[C@H]1C(=O)NCc1ccccc1 (stereo partly drawn)	nM	2100

Hey, can you go through the list below and give me IC50 for every item?
1. CCC[C@H](NC)C(=O)N[C@@H](CC#CC#CC[C@H](NC(=O)[C@H](C)NC)C(=O)N1CCC[C@H]1C(=O)N[C@@H]1CCCc2ccccc21)C(=O)N1CCC[C@H]1C(=O)N[C@@H]1CCCc2ccccc21.Cl.Cl
2. CC[C@H](NC)C(=O)N[C@@H](CC#CC#CC[C@H](NC(=O)[C@H](CC)NC)C(=O)N1CCC[C@H]1C(=O)N[C@@H]1CCCc2ccccc21)C(=O)N1CCC[C@H]1C(=O)N[C@@H]1CCCc2ccccc21
3. CN[C@@H](C)C(=O)N[C@@H](Cc1nnn2c1-c1c(C[C@H](NC(=O)[C@H](C)NC)C(=O)N3CCC[C@H]3C(=O)N[C@@H]3CCCc4ccccc43)nnn1CC2)C(=O)N1CCCC1C(=O)N[C@@H]1CCCc2ccccc21.Cl.Cl (stereo partly drawn)
4. CN[C@@H](C)C(=O)N[C@@H](CC#CC#CCO[C@H](C)[C@H](NC(=O)[C@H](C)NC)C(=O)N1CCCC1C(=O)N[C@@H]1CCCc2ccccc21)C(=O)N1CCCC1C(=O)N[C@@H]1CCCc2ccccc21.Cl.Cl (stereo partly drawn)

OUTPUT:
80
9
2200
70

---

Biological target: truncated XIAP containing only BIR1, BIR2, and BIR3 domains (Homo sapiens)
Construct: truncated XIAP containing only BIR1, BIR2, and BIR3 domains
Assay: Fluorescent polarization assay (Bir binding)
Conditions: competition with 2 nM fluorescein labeled AVPI peptide, room temperature, 1 hour
We use 0.2 µM as the dividing line for Bir binding: on or above the line is yes (1), below is no (0).

Field: example entries. Status: answers known.
COMPOUND	QUALITATIVE LABEL
CN[C@@H](C)C(=O)N[C@@H](Cc1ccc(C#CC[C@H](NC(=O)[C@H](C)NC)C(=O)N2CCC[C@H]2C(=O)N[C@@H]2CCCc3ccccc32)cc1)C(=O)N1CCC[C@H]1C(=O)NC1CCCc2ccccc21.Cl (stereo partly drawn) [Compound 36]	no (0)
CNC(C)C(=O)N[C@@H](CCCCCC[C@H](NC(=O)[C@H](C)NC)C(=O)N1CCC[C@H]1C(=O)NC(c1ccccc1)c1ccccc1)C(=O)N1CCC[C@H]1C(=O)NC(c1ccccc1)c1ccccc1 (stereo partly drawn) [Compound 4]	no (0)
CN[C@@H](C)C(=O)N[C@@H](CCCc1ccc(C[C@H](NC(=O)[C@H](C)NC)C(=O)N2CCC[C@H]2C(=O)N[C@@H]2CCCc3ccccc32)cc1)C(=O)N1CCC[C@H]1C(=O)N[C@@H]1CCCc2ccccc21.Cl.Cl [Compound 41]	yes (1)

INPUT: Please check the record CN[C@@H](C)C(=O)N[C@H](C(=O)N1CCC[C@H]1C(=O)N[C@@H]1CCCc2ccccc21)[C@@H](C)OCc1nnn2c1-c1c(CO[C@H](C)[C@H](NC(=O)[C@H](C)NC)C(=O)N3CCC[C@H]3C(=O)N[C@@H]3CCCc4ccccc43)nnn1CCC2.Cl.Cl [Compound 19] and state if its Bir binding is at or above 0.2 µM.
OUTPUT: no (0)

INPUT: Please check the record CC[C@H](NC)C(=O)N[C@H](C(=O)N1CCCC1)c1ccc(C#CCO[C@H](C)[C@H](NC(=O)[C@H](C)NC)C(=O)N2CCC[C@H]2C(=O)N[C@@H]2CCCc3ccccc32)cc1.Cl.Cl [Compound 37] and state if its Bir binding is at or above 0.2 µM.
OUTPUT: yes (1)

INPUT: Please check the record CN[C@@H](C)C(=O)N[C@@H](Cc1nnn2c1-c1c(C[C@H](NC(=O)[C@H](C)NC)C(=O)N3CCC[C@H]3C(=O)N[C@@H]3CCCc4ccccc43)nnn1CC2)C(=O)N1CCCC1C(=O)N[C@@H]1CCCc2ccccc21.Cl.Cl (stereo partly drawn) [Compound 21] and state if its Bir binding is at or above 0.2 µM.
OUTPUT: yes (1)

INPUT: Please check the record CN[C@@H](C)C(=O)N[C@@H](CC#Cc1ccc([C@H](NC(=O)[C@H](C)NC)C(=O)N2CCC[C@H]2C(=O)N[C@@H]2CCCc3ccccc32)cc1)C(=O)N1CCC[C@H]1C(=O)N[C@@H]1CCCc2ccccc21.Cl.Cl [Compound 26] and state if its Bir binding is at or above 0.2 µM.
OUTPUT: yes (1)
